test system: HCT-116 colon; test: NCI tumour cell line growth inhibition, 48 h
Recorded Metric: TGI (µM)
Record the value in µM, omitting the unit from your answer.

Check out these entries, answers already filled in.
Molecule	TGI [µM]
C=C1C(=O)OC2C1CCC(C)C1C=CC(=O)C12C (configuration not stated)	3.91
CN(C)CCNC(=O)c1cccc2nc3cc(Cl)ccc3nc12	2.23
C=CCN1C(=O)/C(=C\c2cc(C(C)(C)C)c(O)c(C(C)(C)C)c2)NC1=S	35.4

Moving on to another molecule below.
Quick note, TGI for CCCSc1ccc2[nH]c(/N=C/c3ccccc3)cc2c1 landed at 39.8

---

test system: LOX IMVI melanoma; experiment: NCI tumour cell line growth inhibition, 48 h
Recorded Metric: log10(TGI) (log10 of the value in µM)
Form field - Quantity: TGI; Unit: µM; Scale: log10

Check out these entries, answers already filled in.
Compound	log10(TGI)
COc1ccc2c3c([nH]c2c1[N+](=O)[O-])C(C)N(Cc1ccc([N+](=O)[O-])cc1)CC3 (configuration not stated)	1.43
O=c1ccs[nH]1	1.26
CC(=O)NC1=C(NC(C)(C)C)C(=O)c2ccccc2C1=O	1.49
CCCCN1CN2C(=O)C(C(=O)OCC)C(=O)c3sc4nc(SC)nc1c4c32 (configuration not stated)	1.58
Cc1cc(O)cc2c1[C@]1(C)CCC3C(C)(C)CCC[C@]3(C)[C@H]1C2 (some centres not stated)	1.55
C[C@]12CC[C@@H]3c4cc(-c5ccc(F)cc5)c(O)cc4CC[C@H]3[C@@H]1CC[C@@H]2O	1.34

The compound COc1c(OC(C)C)c(OC(C)C)c2oc(=O)n3c2c1C(c1ccccc1-n1c(C)ccc1C)C=C3 (configuration not stated) , when measured on LOX IMVI melanoma, yielded log10(TGI) of 1.77

The compound CCCCCCc1ccc(C(=O)NO)cc1 , when measured on LOX IMVI melanoma, yielded log10(TGI) of 1.89

The compound O=C1CCCCCCCCCCC1CCCCCBr (configuration not stated) , when measured on LOX IMVI melanoma, yielded log10(TGI) of 1.58

The compound C=C1C(=O)O[C@H]2[C@H]1CC/C(COC(=O)c1cc3ccccc3o1)=C\CC[C@@]1(C)O[C@@H]21 , when measured on LOX IMVI melanoma, yielded log10(TGI) of 0.45

---

tested on: RPMI-8226 leukemia; experiment: NCI tumour cell line growth inhibition, 48 h; in the data active means GI50 below about 0.43 µM; inactive means the rest
Answer with one of the outcomes active, inactive

Example entries and their recorded answers appear below.
Compound	Group
COc1cccc(/C=C/[N+](=O)[O-])c1	inactive
CC(=Nc1ccccc1)C1=C(O)C(Cc2ccc(O)cc2)NC1=O (centres undefined)	active
COc1cc(N2CCC(N3CCN(C)CC3)CC2)ccc1Nc1ncnc(Nc2ccccc2S(=O)(=O)C(C)C)n1	inactive
C=C1C(=O)O[C@H]2[C@H]1CC/C(COC(=O)c1cc3ccccc3o1)=C\CC[C@@]1(C)O[C@@H]21	inactive
CC(=O)N1C/C(=C/c2ccc(Cl)cc2)C(=O)/C(=C/c2ccc(Cl)cc2)C1	active

For c1cc(N2CCCN(c3ccc(C4=NCCCN4)cc3)CC2)ccc1C1=NCCCN1 , what call appears in the results of this test?
inactive

For O=C(O)c1ccc(Oc2nccc(-c3c(-c4ccc(F)cc4)ncn3C3CCNCC3)n2)cc1 , what call appears in the results of this test?
inactive

For CC(C)[O-].CC(C)[O-].O=C1C=C([O-])C(=O)c2ccccc21.O=C1C=C([O-])C(=O)c2ccccc21.[Ti+4] , what call appears in the results of this test?
inactive

For CC1=C(C(=O)Nc2ccc(Cl)c(Cl)c2)C(c2cccc(Cl)c2)NC(=O)N1 (centres undefined) , what call appears in the results of this test?
inactive

---

tested on: RXF 393 renal; assay: NCI tumour cell line growth inhibition, 48 h; in the data active means GI50 below about 0.43 µM; inactive means the rest
Answer with one of the outcomes active, inactive

Example entries and their recorded answers appear below.
Compound	Group
O=c1cc(N2CCN(CCCCCOc3cc(O)c4c(=O)cc(-c5ccccc5)oc4c3)CC2)c2ccccc2o1	inactive
Nc1c2c(c(O)c3c1=C(CO)C=N3)=NCCS2	active
COC(=O)CC[C@]1(C)O[C@H]2[C@H]([C@@H](C)CCCC(C)=O)OC(=O)[C@@H]2C[C@H]1O	inactive
Cc1nc2sc(C(=O)Nc3cccc4ccccc34)c(N)c2cc1C(O)c1ccccc1 (stereo not given)	active

For COC(=O)c1cc2c3ccccc3n3c(=O)c4cc5ccccc5nc4c(n1)c23 , what call appears in the results of this test?
inactive

---

tested on: SK-OV-3 ovarian; experiment: NCI tumour cell line growth inhibition, 48 h; in the data active = GI50 below about 0.43 µM; inactive = the rest
Answer with one of the outcomes T for active, F for inactive

Example entries and their recorded answers appear below.
Compound	Group
COc1cc(-c2ccc(-c3ccc(C(=N)N)nc3)s2)cc(OC)c1OC	F
C=C(C)[C@@H]1CC[C@]2(C(=O)O)CC[C@]3(C)[C@H](CC[C@@H]4[C@@]5(C)CCC(NC(=O)c6cccc(OC(C)=O)c6OC(C)=O)C(C)(C)[C@@H]5CC[C@]43C)[C@@H]12 (stereo partly drawn)	F
C=C1C(=O)O[C@H]2[C@H]1CC/C(COC(=O)C(=O)c1cn(C)c3ccc(Cl)cc13)=C\CC[C@@]1(C)O[C@@H]21	F
C[C@]12CC[C@@H]3c4cc(-c5ccc(F)cc5)c(O)cc4CC[C@H]3[C@@H]1CC[C@@H]2O	F
CC(C)[O-].CC(C)[O-].O=C1C=C([O-])C(=O)c2ccccc21.O=C1C=C([O-])C(=O)c2ccccc21.[Ti+4]	F
COc1ccc(-c2cc(-c3ccc(Cl)cc3)nc(SCCCC(=O)NO)n2)cc1	F
N#CC1=C(N)Oc2c(ccc3ccccc23)C1c1ccccc1 (stereo not drawn)	T

Now take the following compound into account.
For CC(=Nc1ccccc1)C1=C(O)C(Cc2ccc(O)cc2)NC1=O (stereo not drawn) , what call appears in the results of this test?
T

---

# TGI listing for each entry below
test system: HCC-2998 colon; assay: NCI tumour cell line growth inhibition, 48 h

Check out these entries, answers already filled in.
Compound	TGI
CO[C@@H]1C[C@H]2[C@@H]3CC[C@H]([C@@H](C)CO)[C@@]3(C)CC[C@@H]2[C@@]2(C)CC[C@H]3C[C@]312	> 100 µM
CCC(C(=O)C(=O)C(CC)P1(=O)OC(C)(C)CN1C(C)(C)C)P1(=O)OC(C)(C)CN1C(C)(C)C (stereo unspecified)	> 100 µM
CC(C)OP(=O)(OC(C)C)c1nc(-c2ccccc2)n(-c2ccc([N+](=O)[O-])cc2)n1	> 100 µM
NC(=O)CCC(Nc1c2ccccc2nc2ccccc12)C(=O)O (stereo unspecified)	> 100 µM
CCCC[C@H]1[C@@H](OCOc2ccccc2)COC(=O)N1[C@H](C)c1ccccc1	35.8 µM
COC(=O)c1ccc(NC(=O)O/N=C(\Cl)C(C)C)cc1	28.1 µM
COc1ccccc1C(O)(c1ccccc1)C(O)(c1ccccc1)c1ccccc1OC (stereo unspecified)	> 100 µM
Cc1nc(C(N)=S)sc1C(=O)CC(=O)C(=O)Nc1ccccc1[N+](=O)[O-]	> 100 µM
O=c1cc(N2CCN(CCCCCOc3cc(O)c4c(=O)cc(-c5ccccc5)oc4c3)CC2)c2ccccc2o1	> 100 µM
O=C(Nc1ccc(Cl)cc1Cl)C1C(=O)C(=O)N(c2ccc(Cl)cc2Cl)C1=O (stereo unspecified)	> 100 µM

Quick note, TGI for Cc1ccc(/C(O)=C/c2nc3c(nc2NC24CC5CC(CC(C5)C2)C4)c(=O)oc2ccccc23)cc1 landed at > 100 µM

Quick note, TGI for CC1C/C(=C\c2ccc(OC(=O)C(C)(C)C)cc2)C(=O)/C(=C/c2ccc(OC(=O)C(C)(C)C)cc2)C1 (stereo unspecified) landed at > 100 µM

Quick note, TGI for C#CC1(OC(C)=O)CCC2C3CC=C4C=C(OC(C)=O)CCC4(C)C3CCC21C (stereo unspecified) landed at 32.9 µM

Quick note, TGI for CC(C)C[C@H](NC(=O)Cn1ccc(NCc2ccccc2)cc1=O)B(O)O landed at 5.73 µM

Quick note, TGI for COC(=O)c1ccccc1C1CN=NC12Cc1ccccc1C2=O (stereo unspecified) landed at > 100 µM

---

test system: MALME-3M melanoma; test: NCI tumour cell line growth inhibition, 48 h; in the data active = GI50 below about 0.43 µM; inactive = the rest
Answer with one of the outcomes TRUE for active, FALSE for inactive

Example entries and their recorded answers appear below.
Compound	Target System	Group
COc1cc2c(cc1OC)-c1ccc3cc4c(cc3c1N(CCCn1ccnc1)C2)OCO4	MALME-3M melanoma	FALSE
CC(C)[O-].CC(C)[O-].O=C1C=C([O-])C(=O)c2ccccc21.O=C1C=C([O-])C(=O)c2ccccc21.[Ti+4]	MALME-3M melanoma	FALSE
O=c1cc(N2CCN(CCCCCOc3cc(O)c4c(=O)cc(-c5ccccc5)oc4c3)CC2)c2ccccc2o1	MALME-3M melanoma	FALSE
Cc1ccc(Cc2cnc(NC(=O)/C=C/c3cccc(C)c3)s2)cc1	MALME-3M melanoma	TRUE

For C=C(C)[C@@H]1CC[C@]2(C(=O)O)CC[C@]3(C)[C@H](CC[C@@H]4[C@@]5(C)CCC(NC(=O)c6cccc(OC(C)=O)c6OC(C)=O)C(C)(C)[C@@H]5CC[C@]43C)[C@@H]12 (stereo not given in full) , what call appears in the results of this test?
TRUE
